# EC50 values compiled below
# Tested on: Tyk2-pSTAT4 (IL-12 induced pSTAT4)
# testName: IL-12 induced pSTAT4 in human PBMC
# Type: cell-based
# conditionsUsed: Homo sapiens, PBMC, 0.5 h, 1.7 ng/mL IL-12, 30 minutes

INSERT INTO assay_data (compound, valuereported) VALUES
  ('N#Cc1cccc(F)c1-c1cc(-n2ccc(N3CCOC[C@H](O)C3)n2)c2c(n1)CNC2=O [I-132]', '100 to 2000 nM'),
  ('C[C@]1(O)CCCN(c2ccn(-c3cc(-c4c(F)cccc4C#N)nc4c3C(=O)NC4)n2)C1 [I-72]', '100 to 2000 nM'),
  ('N#Cc1cccc(F)c1-c1cc(-n2ccc(N3CC[C@@]4(CCNC4=O)C3)n2)c2c(n1)CNC2=O [I-166]', '100 to 2000 nM');

Sample [2H]C1([2H])C[C@@](O)(C([2H])([2H])[2H])C([2H])([2H])N1c1ccn(-c2cc(-c3c(F)cccc3C#N)nc3c2C(=O)NC3)n1 [I-183] ; EC50 observed: 30 to 100 nM

compound N#Cc1cccc(F)c1-c1cc(-n2ccc(N3CC[C@H](O)C3=O)n2)c2c(n1)CNC2=O [I-148] , EC50 observed: > 2000 nM

Value of EC50 reported for the compound CO[C@@H]1CCN(c2ccn(-c3cc(-c4c(F)cccc4C#N)nc4c3C(=O)NC4)n2)C[C@]1(C)O [I-213] is 100 to 2000 nM

For reference, reported EC50 for C[C@@]1(O)CCN(c2ccn(-c3cc(-c4c(F)cccc4C#N)nc4c3C(=O)NC4)n2)C1 [I-92] stands at 30 to 100 nM

###

# Tested on: Tyk2-pSTAT4 (IL-12 induced pSTAT4)
# testName: IL-12 induced pSTAT4 in human PBMC
# Type: cell-based
# conditionsUsed: Homo sapiens, PBMC, 0.5 h, 1.7 ng/mL IL-12, 30 minutes
pEC50: −log10 of the molar value.
measurementKind: pEC50

The examples below pair each entry with its known result.
INSERT INTO assay_data (compound, valuereported) VALUES
  ('N#Cc1cccc(F)c1-c1cc(-n2ccc(N3CCOCC(O)C3)n2)c2c(n1)CNC2=O (stereo not shown)', '7.00 to 7.52'),
  ('N#Cc1cccc(F)c1-c1cc(-n2ccc(N3CCOC[C@@H]3CO)n2)c2c(n1)CNC2=O', '5.70 to 7.00'),
  ('CC1(C)[C@@H](O)CCN1c1ccn(-c2cc(-c3c(F)cccc3C#N)nc3c2C(=O)NC3)n1', '7.00 to 7.52');

Recorded result, "N#Cc1cccc(F)c1-c1cc(-n2ccc(N3CC[C@@H](O)[C@@H](N4CCOCC4)C3)n2)c2c(n1)CNC2=O" , pEC50: 5.70 to 7.00

get_value(item= "N#Cc1cccc(F)c1-c1cc(-n2ccc(N3CCC[C@H](O)C3)n2)c2c(n1)CNC2=O" , readout=pEC50) returns 5.70 to 7.00

Record "[2H]C1([2H])N(c2ccn(-c3cc(-c4c(F)cccc4C#N)nc4c3C(=O)NC4)n2)C([2H])([2H])[C@](C)(O)C([2H])([2H])C1([2H])[2H]" , field pEC50: 5.70 to 7.00

Summary for this compound, "CS(=O)(=O)N[C@@H]1CCN(c2ccn(-c3cc(-c4c(F)cccc4C#N)nc4c3C(=O)NC4)n2)C1" : pEC50 is 5.70 to 7.00

###

# testedOn: TYK2 (Homo sapiens (Human))
# Sequence (P29597 whole entry): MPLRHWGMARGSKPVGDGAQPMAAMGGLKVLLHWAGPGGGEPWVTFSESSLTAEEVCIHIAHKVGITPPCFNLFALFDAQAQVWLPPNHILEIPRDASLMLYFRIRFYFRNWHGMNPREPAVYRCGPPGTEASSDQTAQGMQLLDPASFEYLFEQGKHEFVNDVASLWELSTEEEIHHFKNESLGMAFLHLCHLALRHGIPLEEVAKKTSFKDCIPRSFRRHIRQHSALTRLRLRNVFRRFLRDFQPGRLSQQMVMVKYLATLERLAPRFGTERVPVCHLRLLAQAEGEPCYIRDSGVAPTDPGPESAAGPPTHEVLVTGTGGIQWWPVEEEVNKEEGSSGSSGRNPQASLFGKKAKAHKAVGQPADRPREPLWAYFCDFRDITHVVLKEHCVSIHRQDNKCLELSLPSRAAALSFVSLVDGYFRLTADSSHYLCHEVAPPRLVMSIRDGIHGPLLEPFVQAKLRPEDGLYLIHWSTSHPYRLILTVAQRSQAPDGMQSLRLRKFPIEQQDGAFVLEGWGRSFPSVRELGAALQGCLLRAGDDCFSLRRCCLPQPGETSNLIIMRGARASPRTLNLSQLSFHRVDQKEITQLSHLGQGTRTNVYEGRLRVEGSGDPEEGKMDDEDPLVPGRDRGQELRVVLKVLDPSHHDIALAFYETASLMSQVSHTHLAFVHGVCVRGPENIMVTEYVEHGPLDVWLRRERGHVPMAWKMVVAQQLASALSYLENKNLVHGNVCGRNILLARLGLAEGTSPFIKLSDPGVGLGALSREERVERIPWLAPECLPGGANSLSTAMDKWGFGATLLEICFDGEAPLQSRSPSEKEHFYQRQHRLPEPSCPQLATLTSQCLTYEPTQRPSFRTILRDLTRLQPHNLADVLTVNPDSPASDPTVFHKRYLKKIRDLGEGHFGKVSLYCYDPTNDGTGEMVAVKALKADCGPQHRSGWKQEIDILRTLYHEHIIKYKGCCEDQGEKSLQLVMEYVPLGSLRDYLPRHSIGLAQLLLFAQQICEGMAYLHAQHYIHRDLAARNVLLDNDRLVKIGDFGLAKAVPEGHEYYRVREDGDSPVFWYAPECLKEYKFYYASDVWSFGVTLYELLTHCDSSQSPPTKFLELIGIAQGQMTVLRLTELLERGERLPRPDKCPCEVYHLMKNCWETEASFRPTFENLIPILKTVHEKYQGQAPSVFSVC
pKi: −log10 of the molar value.
measurementKind: pKi

A selection of reference data follows.
INSERT INTO measurements (molecule, testedon, valuereported) VALUES
  ('N#Cc1cccc(F)c1-c1cc(-n2ccc(N3CCNC(=O)C3)n2)c2c(n1)CNC2=O [I-175]', 'TYK2 (Homo sapiens (Human))', '8.00 to 10.00'),
  ('CN1CCN(c2ccn(-c3cc(-c4c(F)cccc4C#N)nc4c3C(=O)NC4)n2)CC1 [I-6]', 'TYK2 (Homo sapiens (Human))', '8.00 to 10.00'),
  ('N#Cc1cccc(F)c1-c1cc(-c2ccn(C(=O)N3CCOCC3)n2)c2c(n1)CNC2=O [I-231]', 'TYK2 (Homo sapiens (Human))', '7.00 to 8.00');

Next item in the queue.
# N#Cc1cccc(F)c1-c1cc(-n2ccc(N3CCCC(N4CCOCC4)C3)n2)c2c(n1)CNC2=O (stereo not shown) [I-149] with TYK2 (Homo sapiens (Human)): pKi is 10.00 to 11.05

###

So I've got Ki readings for JAK2 (Homo sapiens (Human)), take a look.

# count of solved cases: 5
INSERT INTO results (molecule, testedon, valuereported) VALUES
  ('N#Cc1cccc(F)c1-c1cc(-n2ccc(N3CC[C@H](F)[C@H](O)C3)n2)c2c(n1)CNC2=O', 'JAK2 (Homo sapiens (Human))', '10 to 100 nM'),
  ('CCNC(=O)Cc1ccn(-c2cc(-c3c(F)cccc3F)nc3c2C(=O)NC3)n1', 'JAK2 (Homo sapiens (Human))', '≥ 1000 nM'),
  ('N#Cc1cccc(F)c1-c1cc(-n2ccc(N3CCC[C@H](CO)C3)n2)c2c(n1)CNC2=O', 'JAK2 (Homo sapiens (Human))', '10 to 100 nM'),
  ('N#Cc1cccc(F)c1-c1cc(-n2ccc(N3CCC(N4CCCC4)CC3)n2)c2c(n1)CNC2=O', 'JAK2 (Homo sapiens (Human))', '10 to 100 nM'),
  ('CC(C)n1ccc(-c2cc(-c3c(F)cccc3C#N)nc3c2C(=O)NC3)n1', 'JAK2 (Homo sapiens (Human))', '100 to 1000 nM');

The measured Ki associated with N#Cc1cccc(F)c1-c1cc(-n2ccc(N3CCCC(O)C3)n2)c2c(n1)CNC2=O (stereo not shown) reads 10 to 100 nM

Per the record, "N#Cc1cccc(F)c1-c1cc(-n2ccc([C@H]3CCCO3)n2)c2c(n1)CNC2=O" has Ki of 10 to 100 nM

Recorded Ki (molecule "N#Cc1cccc(F)c1-c1cc(-n2ccc(N3C[C@@H]4OCCO[C@@H]4C3)n2)c2c(n1)CNC2=O" ): 0.1 to 10 nM

// field: Ki; key: "CO[C@@H]1CCN(c2ccn(-c3cc(-c4c(F)cccc4C#N)nc4c3C(=O)NC4)n2)C[C@H]1O" ; value = 10 to 100 nM

The value of Ki measured for the molecule "CC1(C)[C@H](O)CCN1c1ccn(-c2cc(-c3c(F)cccc3C#N)nc3c2C(=O)NC3)n1" turned out to be 10 to 100 nM

Quick note, Ki for "N#Cc1cccc(F)c1-c1cc(-n2ccc(N3CCCC3=O)n2)c2c(n1)CNC2=O" landed at 10 to 100 nM

Value of Ki reported for the molecule [2H]C1([2H])N(c2ccn(-c3cc(-c4c(F)cccc4C#N)nc4c3C(=O)NC4)n2)C([2H])([2H])C(C)(O)C([2H])([2H])C1([2H])[2H] (stereo not shown) is 10 to 100 nM

Measured Ki, CC1CCC(O)CN1c1ccn(-c2cc(-c3c(F)cccc3C#N)nc3c2C(=O)NC3)n1 (stereo not shown) : 10 to 100 nM

Per the records, this molecule ( "[2H]C1([2H])NC(=O)c2c(-n3ccc(N4CC[C@@H](O)C4)n3)cc(-c3c(F)cccc3C#N)nc21" ) has Ki equal to 0.1 to 10 nM

Ki for N#Cc1cccc(F)c1-c1cc(-n2ccc(N3CCCC(N4CCOCC4)C3)n2)c2c(n1)CNC2=O (stereo not shown) is 0.1 to 10 nM

Record summary for "CO[C@H]1CN(c2ccn(-c3cc(-c4c(F)cccc4C#N)nc4c3C(=O)NC4)n2)C[C@H]1O" : reported Ki = 0.1 to 10 nM

###

# Test system: Tyk2-pSTAT4 (IL-12 induced pSTAT4)
# testName: IL-12 induced pSTAT4 in human PBMC
# Format: cell-based
# conditionsUsed: Homo sapiens, PBMC, 0.5 h, 1.7 ng/mL IL-12, 30 minutes
# Experimental: Human PBMC are isolated from buffy coat and are stored frozen for assays as needed. Cells for assay are thawed and resuspended in complete media containing serum, then cells are diluted to 1.67 E6 cells/ml so that 120 ul per well is 200,000 cells. […] 15 ul of stimulus (final concentration of 1.7 ng/mL IL-12) is added for 30 minutes prior to pSTAT4 and total STAT4 analysis using cell lysates prepared and analyzed by MSD reagents as per manufacturer protocol. […]
pEC50: −log10 of the molar value.
Measured pEC50 values are reported for all entries that follow.

Worked cases, answers included:
INSERT INTO assay_data (compound, testedon, measurementkind, valuereported) VALUES
  ('C[C@@H]1CC(O)C[C@H](C)N1c1ccn(-c2cc(-c3c(F)cccc3C#N)nc3c2C(=O)NC3)n1 (stereo partly shown)', 'Tyk2-pSTAT4 (IL-12 induced pSTAT4)', 'pEC50', '5.70 to 7.00'),
  ('N#Cc1cccc(F)c1-c1cc(-n2ccc(N3CCC(O)C3)n2)c2c(n1)CNC2=O (stereo not shown)', 'Tyk2-pSTAT4 (IL-12 induced pSTAT4)', 'pEC50', '7.00 to 7.52'),
  ('N#Cc1cccc(F)c1-c1cc(-n2ccc(N3CCCOCC3)n2)c2c(n1)CNC2=O', 'Tyk2-pSTAT4 (IL-12 induced pSTAT4)', 'pEC50', '5.70 to 7.00'),
  ('CO[C@H]1CCN(c2ccn(-c3cc(-c4c(F)cccc4C#N)nc4c3C(=O)NC4)n2)C[C@@]1(C)O', 'Tyk2-pSTAT4 (IL-12 induced pSTAT4)', 'pEC50', '5.70 to 7.00'),
  ('[2H]C1([2H])NC(=O)c2c(-n3ccc(N4C([2H])([2H])C[C@](O)(C([2H])([2H])[2H])C4([2H])[2H])n3)cc(-c3c(F)cccc3C#N)nc21', 'Tyk2-pSTAT4 (IL-12 induced pSTAT4)', 'pEC50', '7.00 to 7.52');

Moving on to another compound below.
Just so you know, measured pEC50 for "CO[C@H]1CN(c2ccn(-c3cc(-c4c(F)cccc4C#N)nc4c3C(=O)NC4)n2)CC[C@H]1OC" came out at 5.70 to 7.00
